# Test system: MOLT-4;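 further: growth inhibition of MOLT-4 cells, determined with a cell viability readout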
# assay.protocol: cells
# Format: functional, cell-based
# run.conditions: Homo sapiens
# Description: SANGER: Inhibition of human MOLT-4 cell growth in a cell viability assay.
metric: IC50 (µM)
Just the number in µM, nothing appended.

• COc1ccc(C2=N[C@@H](c3ccc(Cl)cc3)[C@@H](c3ccc(Cl)cc3)N2C(=O)N2CCNC(=O)C2)c(OC(C)C)c1 = 2.33

Asked: I'd like to know its IC50. The compound in question is Cc1cc(Nc2cc(N3CCN(C)CC3)nc(Sc3ccc(NC(=O)C4CC4)cc3)n2)n[nH]1
Given back: 0.233

###

# Tested on: HCC1937;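 further: growth inhibition measured with a cell viability read-out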
# assay.protocol: cells
# Type: functional, cell-based, Homo sapiens
# run.conditions: Homo sapiens, HCC1937
# Description: SANGER: Inhibition of human HCC1937 cell growth in a cell viability assay.
metric: IC50

* Nc1ccn([C@@H]2O[C@H](CO)[C@@H](O)[C@@H]2O)c(=O)n1 [CYTARABINE] | > 2 µM
* CCC1=C[C@@H]2CN(C1)Cc1c([nH]c3ccccc13)[C@@](C(=O)OC)(c1cc3c(cc1OC)N(C)[C@H]1[C@@](O)(C(=O)OC)[C@H](OC(C)=O)[C@]4(CC)C=CCN5CC[C@]31[C@@H]54)C2 [VINORELBINE] | > 0.064 µM
* CN(C)C/C=C/C(=O)Nc1cc2c(Nc3ccc(F)c(Cl)c3)ncnc2cc1O[C@H]1CCOC1 [AFATINIB] | > 0.5 µM
* Cn1cc(C2=C(c3ccc(Cl)cc3Cl)C(=O)NC2=O)c2ccccc21 [SB-216763] | > 10 µM
* Cc1ccc(Nc2nccc(N(C)c3ccc4c(C)n(C)nc4c3)n2)cc1S(N)(=O)=O [PAZOPANIB] | > 8 µM
* COc1ccc(C2=N[C@@H](c3ccc(Cl)cc3)[C@@H](c3ccc(Cl)cc3)N2C(=O)N2CCNC(=O)C2)c(OC(C)C)c1 [NUTLIN-3] | > 8 µM

Asked: I'd like to know its IC50. The compound in question is CC(=O)O[C@@]12CO[C@@H]1C[C@H](O)[C@@]1(C)C(=O)[C@H](O)C3=C(C)[C@@H](OC(=O)[C@H](O)[C@@H](NC(=O)OC(C)(C)C)c4ccccc4)C[C@@](O)([C@@H](OC(=O)c4ccccc4)[C@H]21)C3(C)C [DOCETAXEL]
Given back: > 0.01 µM

Asked: I'd like to know its IC50. The compound in question is COc1cc([C@@H]2c3cc4c(cc3[C@@H](O[C@@H]3O[C@@H]5CO[C@@H](C)O[C@H]5[C@H](O)[C@H]3O)[C@H]3COC(=O)[C@H]23)OCO4)cc(OC)c1O [ETOPOSIDE]
Given back: 15.8 µM

Asked: I'd like to know its IC50. The compound in question is O=C(c1cc(Cc2n[nH]c(=O)c3ccccc23)ccc1F)N1CCN(C(=O)C2CC2)CC1 [OLAPARIB]
Given back: > 5 µM

Asked: I'd like to know its IC50. The compound in question is CC(=O)O[C@@H]1[C@@H](OC(C)=O)[C@@H](O)[C@H](Oc2c(-c3ccc(O)cc3)oc3cc(O)cc(O)c3c2=O)O[C@H]1C
Given back: > 10 µM
